# target-system: androgen receptor (Homo sapiens, UniProt P10275, T878A)
# Construct: host or cells: LNCaP.FGC
# Sequence (P10275 whole entry T878A): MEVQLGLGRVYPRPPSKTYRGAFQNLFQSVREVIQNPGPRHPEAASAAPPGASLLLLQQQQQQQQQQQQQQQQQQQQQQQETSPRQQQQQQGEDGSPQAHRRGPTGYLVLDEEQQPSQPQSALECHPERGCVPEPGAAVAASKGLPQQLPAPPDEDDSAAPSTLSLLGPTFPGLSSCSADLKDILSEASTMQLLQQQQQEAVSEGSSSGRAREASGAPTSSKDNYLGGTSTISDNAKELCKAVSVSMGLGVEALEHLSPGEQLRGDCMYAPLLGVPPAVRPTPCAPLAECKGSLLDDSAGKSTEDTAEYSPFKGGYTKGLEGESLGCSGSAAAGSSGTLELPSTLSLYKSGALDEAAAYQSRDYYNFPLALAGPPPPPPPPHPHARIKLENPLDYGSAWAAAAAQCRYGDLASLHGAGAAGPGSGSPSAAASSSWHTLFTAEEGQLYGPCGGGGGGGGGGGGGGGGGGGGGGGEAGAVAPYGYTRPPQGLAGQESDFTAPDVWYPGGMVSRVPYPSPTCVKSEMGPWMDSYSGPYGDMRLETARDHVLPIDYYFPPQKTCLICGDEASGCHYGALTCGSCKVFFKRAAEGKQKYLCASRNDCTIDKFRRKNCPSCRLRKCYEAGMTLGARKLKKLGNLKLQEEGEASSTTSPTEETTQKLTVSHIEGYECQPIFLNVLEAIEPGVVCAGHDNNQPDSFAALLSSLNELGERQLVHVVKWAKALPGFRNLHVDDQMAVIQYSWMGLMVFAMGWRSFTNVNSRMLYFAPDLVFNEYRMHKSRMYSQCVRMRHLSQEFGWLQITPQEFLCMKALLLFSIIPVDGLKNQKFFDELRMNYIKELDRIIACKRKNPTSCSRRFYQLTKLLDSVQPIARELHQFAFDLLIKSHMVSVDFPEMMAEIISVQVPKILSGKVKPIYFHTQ
# Sequence (Q96SW2 whole entry partner): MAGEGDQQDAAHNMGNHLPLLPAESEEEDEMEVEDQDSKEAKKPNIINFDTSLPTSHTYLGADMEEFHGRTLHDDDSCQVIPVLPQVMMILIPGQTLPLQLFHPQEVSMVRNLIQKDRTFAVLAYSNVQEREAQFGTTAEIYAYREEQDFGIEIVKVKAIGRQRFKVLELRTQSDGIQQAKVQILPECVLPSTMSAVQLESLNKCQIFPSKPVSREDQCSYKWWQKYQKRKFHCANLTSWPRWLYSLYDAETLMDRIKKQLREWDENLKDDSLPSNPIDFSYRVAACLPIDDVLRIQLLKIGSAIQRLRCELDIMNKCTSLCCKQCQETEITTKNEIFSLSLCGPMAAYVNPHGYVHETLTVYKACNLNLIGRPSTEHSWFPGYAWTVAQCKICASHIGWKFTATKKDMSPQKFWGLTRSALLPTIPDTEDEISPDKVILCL
# assay-name: Androgen receptor degradation assay using Western blot analysis
# Assay type: cell-based
# measurement-conditions: LNCaP.FGC cells, serial 10x dilutions from 100 nM; read-out: AR DC50 (concentration needed for 50% AR degradation)

compound: Cn1c2c(c3ccc(OCCCN4CCC5(CC4)CCN(c4ccc(C(=O)N[C@H]6CC[C@H](Oc7ccc(C#N)c(Cl)c7)CC6)nn4)CC5)cc31)C(=O)N(C1CCC(=O)NC1=O)C2=O (stereo partly drawn)
DC50: 10 to 25 nM

compound: Cn1c2c(c3ccc(OC4CCN(CC5CCN(c6ccc(C(=O)N[C@H]7C(C)(C)[C@H](Oc8ccc(C#N)c(Cl)c8)C7(C)C)cc6)CC5)CC4)cc31)C(=O)N(C1CCC(=O)NC1=O)C2=O (stereo partly drawn)
DC50: 25 to 100 nM

compound: Cn1c2c(c3ccc(OCCN4CCCN(c5ccc(C(=O)N[C@H]6CC[C@H](Oc7ccc(C#N)c(Cl)c7)CC6)nn5)CC4)cc31)C(=O)N(C1CCC(=O)NC1=O)C2=O (stereo partly drawn)
DC50: 10 to 25 nM
